Target: Human DYRK1B (Homo sapiens)
Sequence (Q9Y463 whole entry): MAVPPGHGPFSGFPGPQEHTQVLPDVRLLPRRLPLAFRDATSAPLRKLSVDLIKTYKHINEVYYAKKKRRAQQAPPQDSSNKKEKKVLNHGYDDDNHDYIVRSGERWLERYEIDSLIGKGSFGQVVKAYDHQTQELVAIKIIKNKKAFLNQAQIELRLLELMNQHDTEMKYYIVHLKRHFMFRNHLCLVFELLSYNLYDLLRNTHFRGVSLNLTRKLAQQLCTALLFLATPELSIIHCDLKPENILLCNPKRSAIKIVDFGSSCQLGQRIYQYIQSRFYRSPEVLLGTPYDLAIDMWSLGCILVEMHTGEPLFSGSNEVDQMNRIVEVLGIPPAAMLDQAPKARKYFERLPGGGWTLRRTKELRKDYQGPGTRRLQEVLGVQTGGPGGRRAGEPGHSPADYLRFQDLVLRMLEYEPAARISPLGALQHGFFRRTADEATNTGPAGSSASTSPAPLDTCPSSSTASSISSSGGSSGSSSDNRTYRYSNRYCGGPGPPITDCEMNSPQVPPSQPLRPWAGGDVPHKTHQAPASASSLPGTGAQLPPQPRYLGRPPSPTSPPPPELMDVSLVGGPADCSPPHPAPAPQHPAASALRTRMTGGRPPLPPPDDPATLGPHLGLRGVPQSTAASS

{"columns": ["Compound", "System tested", "Comparative sign", "IC50 (nM)"],
 "data": [
  ["COCCOc1cc2cc(C(=O)Nc3cc(C(=O)OC)ccc3C)c(=O)[nH]c2cc1OCCOC [Example 25]", "Human DYRK1B (Homo sapiens)", "=", 911],
  ["COc1cc2cc(C(=O)Nc3cc(C(=O)NC(CN)c4cccc(Cl)c4)ccc3C)c(=O)[nH]c2cc1OC (stereo not drawn) [Example 50]", "Human DYRK1B (Homo sapiens)", "=", 73.2],
  ["COc1cc2cc(C(=O)Nc3cc(C(=O)N[C@H](CO)c4ccccc4)ccc3C)c(=O)[nH]c2cc1OC [Example 57]", "Human DYRK1B (Homo sapiens)", "=", 883],
  ["COc1cc2[nH]c(=O)c(C(=O)Nc3cc(C(=O)NCc4cccc(Cl)c4)ccc3C)cc2cc1O [Example 68]", "Human DYRK1B (Homo sapiens)", "=", 189],
  ["COCCOc1cc2cc(C(=O)Nc3cc(-c4nnn[nH]4)ccc3C)c(=O)[nH]c2cc1OCCOC [Example 28]", "Human DYRK1B (Homo sapiens)", "=", 5050],
  ["COCCOc1cc2cc(C(=O)Nc3cc(C(=O)NCc4cccc(Cl)c4)ccc3Cl)c(=O)[nH]c2cc1OC [Example 55]", "Human DYRK1B (Homo sapiens)", "=", 37.3],
  ["COCCOc1cc2[nH]c(=O)c(C(=O)Nc3cc(C(=O)OC)ccc3C)cc2cc1OC [Example 26]", "Human DYRK1B (Homo sapiens)", "=", 6420],
  ["COCCOc1cc2cc(C(=O)Nc3cc(C(=O)NC(CCN)c4ccccc4)ccc3C)c(=O)[nH]c2cc1OC (stereo not drawn) [Example 38]", "Human DYRK1B (Homo sapiens)", "=", 44.8],
  ["COCCOc1cc2cc(C(=O)Nc3cc(C(=O)OC)ccc3Cl)c(=O)[nH]c2cc1OC [Example 53]", "Human DYRK1B (Homo sapiens)", "=", 115],
  ["COc1cc2cc(C(=O)Nc3cc(C(=O)NC(CCN)c4ccccc4)ccc3C)c(=O)[nH]c2cc1OC (stereo not drawn) [Example 35]", "Human DYRK1B (Homo sapiens)", "=", 59.5],
  ["COCCOCCOc1cc2cc(C(=O)Nc3cc(C(=O)NCc4cccc(Cl)c4)ccc3C)c(=O)[nH]c2cc1OC [Example 70]", "Human DYRK1B (Homo sapiens)", "=", 1690],
  ["COc1cc2cc(C(=O)Nc3cc(C(=O)NCC4CCCCC4)ccc3C)c(=O)[nH]c2cc1OC [Example 41]", "Human DYRK1B (Homo sapiens)", "=", 2590],
  ["COC(=O)c1ccc(Cl)c(NC(=O)C2Cc3cc(OC)c(OC)cc3NC2=O)c1 (stereo not drawn) [Example 71]", "Human DYRK1B (Homo sapiens)", "=", 860],
  ["COCCOc1cc2cc(C(=O)Nc3cc(C(=O)NC(CCN)c4ccccc4)ccc3Cl)c(=O)[nH]c2cc1OC (stereo not drawn) [Example 61]", "Human DYRK1B (Homo sapiens)", "=", 11.5],
  ["COCCOc1cc2[nH]c(=O)c(C(=O)Nc3cc(-c4nnn[nH]4)ccc3C)cc2cc1OC [Example 27]", "Human DYRK1B (Homo sapiens)", "=", 6590],
  ["COC(=O)c1ccc(C)c(NC(=O)c2cc3cc(OCCN4CCOCC4)c(OC)cc3[nH]c2=O)c1 [Example 39]", "Human DYRK1B (Homo sapiens)", "=", 190],
  ["COCCOc1cc2cc(C(=O)Nc3cc(C(=O)N[C@@H](CCN)c4ccccc4)ccc3Cl)c(=O)[nH]c2cc1OC [Example 64]", "Human DYRK1B (Homo sapiens)", "=", 253],
  ["COCCOc1cc2cc(C(=O)Nc3cc(C(=O)N[C@H](CCN)c4ccccc4)ccc3Cl)c(=O)[nH]c2cc1OC [Example 63]", "Human DYRK1B (Homo sapiens)", "=", 8],
  ["COc1cc2cc(C(=O)Nc3ccncc3C)c(=O)[nH]c2cc1OC [Example 21]", "Human DYRK1B (Homo sapiens)", "=", 5480],
  ["COc1cc2[nH]c(=O)c(C(=O)Nc3cc(C(=O)NCc4cccc(Cl)c4)ccc3C)cc2cc1OCCN1CCOCC1 [Example 43]", "Human DYRK1B (Homo sapiens)", "=", 178],
  ["COCCOc1cc2cc(C(=O)Nc3cc(C(=O)OC)ccc3C)c(=O)[nH]c2cc1OC [Example 23]", "Human DYRK1B (Homo sapiens)", "=", 440],
  ["COc1cc2c(cc1OC)NC(=O)C(C(=O)Nc1cc(C(=O)NCc3ccccc3)ccc1C)C2 (stereo not drawn) [Example 74]", "Human DYRK1B (Homo sapiens)", ">", 10000],
  ["COc1cc2cc(C(=O)Nc3cc(C(=O)NC(CCN)c4ccccc4)ccc3C)c(=O)[nH]c2cc1OC (stereo in doubt) [Example 47]", "Human DYRK1B (Homo sapiens)", "=", 14],
  ["COc1cc2c(cc1OC)NC(=O)C(C(=O)Nc1cc(C(=O)NCc3ccccc3)ccc1Cl)C2 (stereo not drawn) [Example 73]", "Human DYRK1B (Homo sapiens)", "=", 2340],
  ["COc1cc2[nH]c(=O)c(C(=O)Nc3cc(C(=O)NC(CCN)c4ccccc4)ccc3C)cc2cc1OCCN1CCOCC1 (stereo not drawn) [Example 44]", "Human DYRK1B (Homo sapiens)", "=", 63],
  ["COCCOc1cc2cc(C(=O)Nc3cc(C(=O)NCc4cccc(Cl)c4)ccc3C)c(=O)[nH]c2cc1OC [Example 52]", "Human DYRK1B (Homo sapiens)", "=", 181],
  ["COCCOc1cc2cc(C(=O)Nc3cc(C(=O)NC(CN)c4ccccc4)ccc3C)c(=O)[nH]c2cc1OC (stereo not drawn) [Example 37]", "Human DYRK1B (Homo sapiens)", "=", 32.5],
  ["COc1cc2cc(C(=O)Nc3cc(C(=O)NC(CN)c4ccccc4)ccc3C)c(=O)[nH]c2cc1OC (stereo not drawn) [Example 31]", "Human DYRK1B (Homo sapiens)", "=", 141],
  ["COCCOc1cc2cc(C(=O)Nc3cc(C(=O)N[C@@H](CCN)c4ccccc4)ccc3C)c(=O)[nH]c2cc1OC (single isomer, unassigned) [Example 59]", "Human DYRK1B (Homo sapiens)", "=", 4910],
  ["COCCOc1cc2cc(C(=O)Nc3cc(C(=O)N[C@H](CCN)c4ccccc4)ccc3C)c(=O)[nH]c2cc1OC (single isomer, unassigned) [Example 58]", "Human DYRK1B (Homo sapiens)", "=", 29]
]}
